5-hydroxytryptamine receptor 2C (Homo sapiens): recorded Ki for assorted compounds
Sequence (P28335 whole entry): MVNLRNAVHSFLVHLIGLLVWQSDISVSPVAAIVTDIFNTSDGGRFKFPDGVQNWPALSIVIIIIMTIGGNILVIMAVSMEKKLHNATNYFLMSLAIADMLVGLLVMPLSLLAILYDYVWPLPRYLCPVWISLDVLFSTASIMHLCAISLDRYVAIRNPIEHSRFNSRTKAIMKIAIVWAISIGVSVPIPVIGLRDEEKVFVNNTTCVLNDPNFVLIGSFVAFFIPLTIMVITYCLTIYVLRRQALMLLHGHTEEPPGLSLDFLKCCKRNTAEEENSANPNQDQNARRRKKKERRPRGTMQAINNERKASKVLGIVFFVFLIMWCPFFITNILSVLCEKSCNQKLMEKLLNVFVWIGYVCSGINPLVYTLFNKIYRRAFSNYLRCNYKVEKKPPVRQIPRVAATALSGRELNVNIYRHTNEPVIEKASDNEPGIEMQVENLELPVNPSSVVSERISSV
property: Ki (nM)

P: Cc1ccc(C)c(COc2ccc(C=NN=C(N)N)cc2)c1
Q: NC(N)=NN=Cc1cccc(OCc2ccc(C(=O)c3ccccc3)cc2)c1
R: NC(N)=NN=C(c1ccccc1)C1CCC(Cl)S1 (centres undefined)
S: CCCc1c(COc2ccc(C=NN=C(N)N)c(OC)c2)ccc(C(=O)CC)c1O
Can you order these entries from above by Ki? Start with the largest number and work down. List labels; respect the requested ordering.
R, P, S, Q

* * *

Target: UniProtKB P41595
Sequence (P41595 whole entry): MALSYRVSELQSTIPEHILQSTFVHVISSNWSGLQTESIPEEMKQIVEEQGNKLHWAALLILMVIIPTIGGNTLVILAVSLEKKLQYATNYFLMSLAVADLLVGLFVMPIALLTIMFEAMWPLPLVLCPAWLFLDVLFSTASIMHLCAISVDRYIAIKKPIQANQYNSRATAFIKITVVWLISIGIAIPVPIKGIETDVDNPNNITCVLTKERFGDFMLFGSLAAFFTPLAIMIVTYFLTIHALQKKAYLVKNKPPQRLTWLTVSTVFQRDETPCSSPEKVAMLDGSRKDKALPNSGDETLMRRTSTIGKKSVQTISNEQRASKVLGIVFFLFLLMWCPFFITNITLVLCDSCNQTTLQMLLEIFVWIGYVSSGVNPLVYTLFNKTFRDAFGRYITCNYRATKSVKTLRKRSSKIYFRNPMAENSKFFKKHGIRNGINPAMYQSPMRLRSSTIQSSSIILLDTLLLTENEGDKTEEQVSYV
property: Ki (nM)
Respond numerically; units are nM and should not be typed.

Give Ki for CCCc1c(COc2ccc(C=NN=C(N)N)cc2)ccc(C(=O)CC)c1O
1640

* * *

UniProt:P28223: recorded pKi for assorted compounds
Sequence (P28223 whole entry): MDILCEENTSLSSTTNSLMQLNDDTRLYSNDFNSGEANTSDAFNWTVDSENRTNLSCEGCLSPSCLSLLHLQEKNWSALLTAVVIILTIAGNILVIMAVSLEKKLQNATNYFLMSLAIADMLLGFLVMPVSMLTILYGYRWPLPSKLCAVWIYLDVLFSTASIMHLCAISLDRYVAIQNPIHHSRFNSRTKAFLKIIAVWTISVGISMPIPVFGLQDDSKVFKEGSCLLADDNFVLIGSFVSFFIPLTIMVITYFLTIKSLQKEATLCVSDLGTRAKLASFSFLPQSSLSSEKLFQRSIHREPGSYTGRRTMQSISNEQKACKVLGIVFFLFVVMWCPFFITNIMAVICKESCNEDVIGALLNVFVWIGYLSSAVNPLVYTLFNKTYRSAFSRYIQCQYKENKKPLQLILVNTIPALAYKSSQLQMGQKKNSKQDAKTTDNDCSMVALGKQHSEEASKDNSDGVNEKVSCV
pKi: −log10 of the molar value.
property: pKi

- CCCc1c(COc2ccc(C=NN=C(N)N)c(OC)c2)ccc(C(=O)CC)c1O: 6.61
- NC(N)=NN=Cc1cccc(OCc2ccc(C(=O)c3ccccc3)cc2)c1: 6.75
